Catalogue of AC50 readings, one per entry.
Target: Alpha-2A adrenergic receptor (Homo sapiens, UniProt P08913); note: assay procedure not described here
Sequence (P08913 whole entry): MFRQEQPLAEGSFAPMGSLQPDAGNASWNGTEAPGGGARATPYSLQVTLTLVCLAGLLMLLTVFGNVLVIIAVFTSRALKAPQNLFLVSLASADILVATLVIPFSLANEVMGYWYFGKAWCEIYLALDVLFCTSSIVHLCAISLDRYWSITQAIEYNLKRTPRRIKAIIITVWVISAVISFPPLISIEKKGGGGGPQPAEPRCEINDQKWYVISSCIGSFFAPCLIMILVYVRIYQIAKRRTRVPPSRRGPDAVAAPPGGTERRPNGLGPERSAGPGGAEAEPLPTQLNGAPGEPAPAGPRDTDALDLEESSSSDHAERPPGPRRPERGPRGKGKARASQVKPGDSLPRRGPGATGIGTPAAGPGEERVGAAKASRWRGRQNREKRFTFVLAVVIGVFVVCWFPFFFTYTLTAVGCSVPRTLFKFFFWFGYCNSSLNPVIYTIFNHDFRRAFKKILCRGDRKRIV
Type: functional, cell-based
Observation type: AC50

{"Molecule": "CNC1Cc2ccccc2N(C)c2ccccc21 (stereo not given) [METAPRAMINE]", "Result": "> 30 µM"}
{"Molecule": "C[C@H](N)[C@H](O)c1cccc(O)c1 [METARAMINOL]", "Result": "> 10 µM"}
{"Molecule": "C/C(O)=C(\\C#N)C(=O)Nc1ccc(C(F)(F)F)cc1 [TERIFLUNOMIDE]", "Result": "> 30 µM"}
{"Molecule": "COc1cccc(C2(O)CCCCC2CN(C)C)c1 (stereo not given) [TRAMADOL]", "Result": "> 10 µM"}
{"Molecule": "CN1CCN(C2=Nc3ccccc3Sc3ccc(Cl)cc32)CC1 [CLOTHIAPINE]", "Result": "> 30 µM"}

###

Entries below carry reported AC50 on Substance-P receptor (Homo sapiens).
Sequence (P25103 whole entry): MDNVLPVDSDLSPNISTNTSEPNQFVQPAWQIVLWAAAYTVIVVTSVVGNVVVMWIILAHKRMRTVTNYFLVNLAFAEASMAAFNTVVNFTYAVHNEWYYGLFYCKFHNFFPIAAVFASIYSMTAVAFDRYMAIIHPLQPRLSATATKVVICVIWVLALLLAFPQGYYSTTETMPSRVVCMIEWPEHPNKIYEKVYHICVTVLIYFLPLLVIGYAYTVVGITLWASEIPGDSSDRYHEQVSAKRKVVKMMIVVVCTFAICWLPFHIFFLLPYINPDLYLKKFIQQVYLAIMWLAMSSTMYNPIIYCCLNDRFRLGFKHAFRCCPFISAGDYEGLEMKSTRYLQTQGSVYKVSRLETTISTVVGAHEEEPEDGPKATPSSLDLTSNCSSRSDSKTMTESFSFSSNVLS
Observation type: AC50

{"Compound": "Cc1cn([C@H]2C[C@H](N=[N+]=[N-])[C@@H](CO)O2)c(=O)[nH]c1=O", "Observation type": "AC50", "Result": "> 10 µM"}
{"Compound": "CCCc1nc(C(C)(C)O)c(C(=O)OCc2oc(=O)oc2C)n1Cc1ccc(-c2ccccc2-c2nnn[nH]2)cc1", "Observation type": "AC50", "Result": "> 10 µM"}
{"Compound": "C[C@]12CCC(=O)C=C1CC[C@@H]1[C@@H]2[C@@H](O)C[C@@]2(C)[C@H]1CC[C@]2(O)C(=O)CO [HYDROCORTISONE]", "Observation type": "AC50", "Result": "> 10 µM"}
{"Compound": "CCc1c(Cl)c(O)c(Cl)c(O)c1C(=O)O[C@H]1[C@H](O)[C@H](OC)[C@H](OC/C2=C\\C=C\\C[C@H](O)/C(C)=C/[C@H](CC)[C@@H](O[C@@H]3OC(C)(C)[C@@H](OC(=O)C(C)C)[C@H](O)[C@@H]3O)/C(C)=C/C(C)=C/C[C@@H]([C@@H](C)O)OC2=O)O[C@@H]1C", "Observation type": "AC50", "Result": "5.92 µM"}
{"Compound": "CS(=O)(=O)c1ccc(C2=C(c3ccccc3)C(=O)OC2)cc1", "Observation type": "AC50", "Result": "> 10 µM"}
{"Compound": "CCCCCNC(=N)N/N=C/c1c[nH]c2ccc(OC)cc12", "Observation type": "AC50", "Result": "> 10 µM"}
{"Compound": "NCC(CC(=O)O)c1ccc(Cl)cc1 (stereo not given)", "Observation type": "AC50", "Result": "> 10 µM"}
{"Compound": "Clc1ccc2nsnc2c1NC1=NCCN1", "Observation type": "AC50", "Result": "> 10 µM"}
{"Compound": "CC[C@H]1OC(=O)[C@H](C)[C@@H](O[C@H]2C[C@@](C)(OC)[C@@H](O)[C@H](C)O2)[C@H](C)[C@@H](O[C@@H]2O[C@H](C)C[C@H](N(C)C)[C@H]2O)[C@](C)(O)C[C@@H](C)CN(C)[C@H](C)[C@@H](O)[C@]1(C)O", "Observation type": "AC50", "Result": "> 10 µM"}
{"Compound": "CC1=C(C(=O)O)N2C(=O)[C@@H](NC(=O)[C@H](N)c3ccccc3)[C@H]2SC1 [CEPHALEXIN ANHYDROUS]", "Observation type": "AC50", "Result": "> 10 µM"}
{"Compound": "COc1ccc(C(=O)Nc2ccccc2CCC2CCCCN2C)cc1 (stereo not given) [ENCAINIDE]", "Observation type": "AC50", "Result": "> 10 µM"}
{"Compound": "O=[N+]([O-])c1cn2c(n1)OC[C@@H](OCc1ccc(OC(F)(F)F)cc1)C2", "Observation type": "AC50", "Result": "> 10 µM"}
{"Compound": "COc1ccc2c3c1O[C@H]1[C@@H](O)C=C[C@H]4[C@@H](C2)N(C)CC[C@@]341", "Observation type": "AC50", "Result": "> 10 µM"}
{"Compound": "COc1cccc(C2(O)CCCCC2CN(C)C)c1 (stereo not given)", "Observation type": "AC50", "Result": "> 10 µM"}
{"Compound": "CCOC(=O)[C@H](CCc1ccccc1)N[C@@H](C)C(=O)N1[C@H](C(=O)O)C[C@@H]2CCC[C@@H]21", "Observation type": "AC50", "Result": "> 10 µM"}
{"Compound": "CN1CCN(CC/C=C2/c3ccccc3Sc3ccc(S(=O)(=O)N(C)C)cc32)CC1", "Observation type": "AC50", "Result": "3.84 µM"}
{"Compound": "Cc1ccc(-c2cc(C(F)(F)F)nn2-c2ccc(S(N)(=O)=O)cc2)cc1", "Observation type": "AC50", "Result": "> 10 µM"}
{"Compound": "CCCN(CCC)C(=O)C(CCC(=O)O)NC(=O)c1ccccc1 (stereo not given) [PROGLUMIDE]", "Observation type": "AC50", "Result": "> 10 µM"}
{"Compound": "CN(C)CCC(c1ccc(Cl)cc1)c1ccccn1 (stereo not given)", "Observation type": "AC50", "Result": "> 10 µM"}
{"Compound": "CCC(C)n1ncn(-c2ccc(N3CCN(c4ccc(OCC5COC(Cn6cncn6)(c6ccc(Cl)cc6Cl)O5)cc4)CC3)cc2)c1=O (stereo not given)", "Observation type": "AC50", "Result": "1.54 µM"}
{"Compound": "Cc1c(C(=O)NN2CCCCC2)nn(-c2ccc(Cl)cc2Cl)c1-c1ccc(Cl)cc1", "Observation type": "AC50", "Result": "> 10 µM"}
{"Compound": "COc1cc2nc(N3CCN(C(=O)c4ccco4)CC3)nc(N)c2cc1OC", "Observation type": "AC50", "Result": "> 10 µM"}
{"Compound": "N#Cc1ccc([C@H]2CCc3cncn32)c(F)c1", "Observation type": "AC50", "Result": "> 10 µM"}
{"Compound": "CCOc1ccccc1OCC1CNCCO1 (stereo not given)", "Observation type": "AC50", "Result": "> 10 µM"}
{"Compound": "Cn1nnc2c(C(N)=O)ncn2c1=O [TEMOZOLOMIDE]", "Observation type": "AC50", "Result": "> 10 µM"}
{"Compound": "Cc1cn([C@H]2C=C[C@@H](CO)O2)c(=O)[nH]c1=O", "Observation type": "AC50", "Result": "> 10 µM"}
{"Compound": "CN1C(=O)C(O)N=C(c2ccccc2)c2cc(Cl)ccc21 (stereo not given)", "Observation type": "AC50", "Result": "> 10 µM"}
{"Compound": "O=[N+]([O-])O[C@@H]1CO[C@H]2[C@@H]1OC[C@@H]2O [ISOSORBIDE MONONITRATE]", "Observation type": "AC50", "Result": "> 10 µM"}
{"Compound": "Cc1c(OCC(F)(F)F)ccnc1C[S+]([O-])c1nc2ccccc2[nH]1 (stereo not given)", "Observation type": "AC50", "Result": "17.2 µM"}
{"Compound": "CCCCc1ncc(/C=C(\\Cc2cccs2)C(=O)O)n1Cc1ccc(C(=O)O)cc1", "Observation type": "AC50", "Result": "> 10 µM"}
